target: cathepsin L (Homo sapiens); construct: purchased Calbiochem 219402; assay: Inhibition of cathepsin L; assay type: biochemical; details: Table III; 1 uM; read-out: Cat L % I @ 1 uM
Sequence (P07711 114-288 limits assumed): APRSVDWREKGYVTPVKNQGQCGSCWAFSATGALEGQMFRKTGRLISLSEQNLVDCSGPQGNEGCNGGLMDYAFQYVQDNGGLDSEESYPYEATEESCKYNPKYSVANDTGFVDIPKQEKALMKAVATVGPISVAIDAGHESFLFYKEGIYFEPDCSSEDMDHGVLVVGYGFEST
Sequence (P07711 292-333 limits assumed): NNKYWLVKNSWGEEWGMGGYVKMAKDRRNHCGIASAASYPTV
Square brackets hold non-standard residues; d marks the D form. Peptide text beside a SMILES is read from it. * marks the point of attachment. d(hPhe) = N[C@H](CCc1ccccc1)C(=O)O; Ms = CS(=O)(=O)*
PROPERTY_MEASURED: inhibition at 1 µM (%)
State the answer as a number, implicitly in %.

Consider the worked cases shown below.
MOLECULE	inhibition at 1 µM (%)
O=C[C@H](Cc1ccccc1)NC(=O)[C@@H](Cc1c[nH]c2ccccc12)NS(=O)(=O)c1ccccc1	100
O=C[C@H](Cc1ccccc1)NC(=O)[C@@H](COCc1ccccc1)NC(=O)c1ccccc1	100

Prompt: Determine its reported inhibition at 1 µM: "Cc1ccc(S(=O)(=O)N2C[C@@H](N=[N+]=[N-])C[C@@H]2C(=O)N[C@H](C=O)Cc2ccccc2)cc1"
Completion: 100

Prompt: Determine its reported inhibition at 1 µM: "O=C[C@H](Cc1ccccc1)NC(=O)[C@@H](COCc1ccccc1)N1C(=O)c2ccccc2C1=O"
Completion: 93

Prompt: Determine its reported inhibition at 1 µM: CS(=O)(=O)N1Cc2ccccc2CC1C(=O)N[C@H](C=O)Cc1ccccc1 (single isomer, unassigned)
Completion: 100

Prompt: Determine its reported inhibition at 1 µM: "CS(=O)(=O)N[C@H](COCc1ccccc1)C(=O)N[C@@H](C=O)Cc1ccccc1"
Completion: 93

Prompt: Determine its reported inhibition at 1 µM: CS(=O)(=O)N[C@H](CCc1ccccc1)C(=O)N[C@H](C=O)Cc1ccccc1 [Compound 62] (Ms-[d(hPhe)]-Phe-aldehyde)
Completion: 89

Prompt: Determine its reported inhibition at 1 µM: "CC(C)(C)OC(=O)N1CCCC[C@H](NC(=O)[C@@H](COCc2ccccc2)N(C(=O)OC(C)(C)C)S(C)(=O)=O)C1=O"
Completion: 7

###

Biological target: Recombinant human calpain I (Homo sapiens, UniProt P07384)
Construct: made in house
Sequence (P07384 1-714): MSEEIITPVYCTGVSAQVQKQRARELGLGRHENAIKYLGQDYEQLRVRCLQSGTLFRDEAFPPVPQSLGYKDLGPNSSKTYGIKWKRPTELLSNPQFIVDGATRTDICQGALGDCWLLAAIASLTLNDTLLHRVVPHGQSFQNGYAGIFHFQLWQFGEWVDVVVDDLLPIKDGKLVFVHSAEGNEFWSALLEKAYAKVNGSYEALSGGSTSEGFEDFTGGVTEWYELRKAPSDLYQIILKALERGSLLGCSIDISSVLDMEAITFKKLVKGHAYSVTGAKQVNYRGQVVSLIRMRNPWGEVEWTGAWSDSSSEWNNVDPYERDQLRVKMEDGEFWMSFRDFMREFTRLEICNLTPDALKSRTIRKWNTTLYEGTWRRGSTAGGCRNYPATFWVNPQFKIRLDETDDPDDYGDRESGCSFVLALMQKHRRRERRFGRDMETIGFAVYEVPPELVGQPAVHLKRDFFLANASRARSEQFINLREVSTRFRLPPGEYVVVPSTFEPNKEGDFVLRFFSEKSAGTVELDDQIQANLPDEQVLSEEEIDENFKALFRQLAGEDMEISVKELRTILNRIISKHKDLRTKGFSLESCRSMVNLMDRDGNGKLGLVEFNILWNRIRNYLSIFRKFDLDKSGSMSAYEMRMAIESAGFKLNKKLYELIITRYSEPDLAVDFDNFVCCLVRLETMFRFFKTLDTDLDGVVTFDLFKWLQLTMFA
Assay: Inhibition of calpain I activity
Type: biochemical
Details: Table II
Square brackets hold non-standard residues; d marks the D form. Peptide text beside a SMILES is read from it. * marks the point of attachment. Bn = c1ccc(C*)cc1
Item-by-item account of pIC50
Remember, pIC50 is on a log scale: it is -log10 of the molar concentration.

Consider the worked cases shown below.
COMPOUND	PROPERTY_MEASURED	EXPERIMENTAL_RESULT
CC(=O)N[C@H](CSCc1ccccc1)C(=O)N[C@H](C=O)Cc1ccccc1 [Compound 25, BnS--CH2 CH(NHC(=O)CH3)C(=O)-Phe--H] (Ac-[dC](Bn)-Phe-aldehyde)	pIC50	7.59
CC(=O)N[C@H](CC(=O)N1CCc2ccccc2C1)C(=O)N[C@H](C=O)Cc1ccccc1	pIC50	7.08
CS(=O)(=O)N[C@H](CC(=O)N1CCc2ccccc2C1)C(=O)N[C@H](C=O)Cc1ccccc1	pIC50	7.70

Read the next record carefully.
Prompt: Enter recorded pIC50 with Recombinant human calpain I (Homo sapiens, UniProt P07384) for "CS(=O)(=O)N[C@H](COCc1ccccc1)C(=O)N[C@H](C=O)Cc1ccccc1" here.
Completion: 7.96
